Target: integrin αvβ3 (vitronectin receptor purified from the human placenta) (Homo sapiens, UniProt P05106+P06756)
Construct: a vitronectin receptor (protein content: 118 μg/ml) purified from the human placenta
Sequence (P06756 31-889 limits assumed): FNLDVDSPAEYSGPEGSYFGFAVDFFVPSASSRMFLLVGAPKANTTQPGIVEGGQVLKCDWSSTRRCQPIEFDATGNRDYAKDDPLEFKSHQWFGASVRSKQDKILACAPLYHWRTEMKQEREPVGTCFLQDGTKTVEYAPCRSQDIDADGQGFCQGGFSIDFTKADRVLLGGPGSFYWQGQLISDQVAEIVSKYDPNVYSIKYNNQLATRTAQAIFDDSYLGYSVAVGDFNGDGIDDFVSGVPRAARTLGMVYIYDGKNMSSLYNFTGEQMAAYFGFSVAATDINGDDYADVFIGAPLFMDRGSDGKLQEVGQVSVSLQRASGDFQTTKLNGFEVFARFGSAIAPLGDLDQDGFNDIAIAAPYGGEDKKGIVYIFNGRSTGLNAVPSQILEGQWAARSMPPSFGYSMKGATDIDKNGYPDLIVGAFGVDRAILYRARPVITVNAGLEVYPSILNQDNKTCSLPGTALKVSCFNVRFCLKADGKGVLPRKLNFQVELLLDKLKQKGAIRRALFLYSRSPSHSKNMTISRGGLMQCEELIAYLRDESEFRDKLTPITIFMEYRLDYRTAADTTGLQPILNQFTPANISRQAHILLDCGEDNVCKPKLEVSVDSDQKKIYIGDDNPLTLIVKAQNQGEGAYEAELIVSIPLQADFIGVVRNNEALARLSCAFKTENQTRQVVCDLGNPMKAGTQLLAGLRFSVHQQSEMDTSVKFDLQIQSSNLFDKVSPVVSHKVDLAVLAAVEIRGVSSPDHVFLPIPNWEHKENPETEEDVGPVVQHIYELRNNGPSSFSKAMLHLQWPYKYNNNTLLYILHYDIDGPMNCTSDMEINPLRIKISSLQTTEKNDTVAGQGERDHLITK
Sequence (P06756 891-1048 partner limits assumed): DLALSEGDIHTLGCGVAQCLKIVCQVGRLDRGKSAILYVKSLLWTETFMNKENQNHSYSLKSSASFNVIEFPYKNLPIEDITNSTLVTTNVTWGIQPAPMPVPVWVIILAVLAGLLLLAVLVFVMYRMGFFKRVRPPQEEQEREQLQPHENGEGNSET
Sequence (P05106 27-788): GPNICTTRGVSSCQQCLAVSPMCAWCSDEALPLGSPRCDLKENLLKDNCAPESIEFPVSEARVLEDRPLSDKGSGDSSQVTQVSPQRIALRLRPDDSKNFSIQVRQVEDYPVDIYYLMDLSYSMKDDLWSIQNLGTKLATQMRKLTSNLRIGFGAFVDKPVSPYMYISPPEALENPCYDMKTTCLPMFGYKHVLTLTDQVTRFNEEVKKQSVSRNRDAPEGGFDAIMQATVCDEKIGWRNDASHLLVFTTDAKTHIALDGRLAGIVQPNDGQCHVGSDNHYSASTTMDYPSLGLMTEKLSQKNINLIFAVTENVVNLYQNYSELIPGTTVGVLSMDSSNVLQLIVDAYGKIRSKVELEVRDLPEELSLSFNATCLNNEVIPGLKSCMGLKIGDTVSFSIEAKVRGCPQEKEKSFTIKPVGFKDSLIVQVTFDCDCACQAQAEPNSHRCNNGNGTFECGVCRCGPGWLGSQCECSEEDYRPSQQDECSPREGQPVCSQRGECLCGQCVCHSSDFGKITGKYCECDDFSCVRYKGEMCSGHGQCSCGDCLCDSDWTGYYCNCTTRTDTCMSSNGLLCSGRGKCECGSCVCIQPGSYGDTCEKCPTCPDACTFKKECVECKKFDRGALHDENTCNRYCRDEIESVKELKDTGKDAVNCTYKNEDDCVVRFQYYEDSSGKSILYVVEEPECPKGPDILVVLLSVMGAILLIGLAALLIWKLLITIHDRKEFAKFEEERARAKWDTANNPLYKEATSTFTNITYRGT
Assay: αvβ3 binding assay (vitronectin-vitronectin receptor binding assay)
Settings: vitronectin receptor from human placenta; read-out: IC50, inhibition of binding between vitronectin and vitronectin receptor (αvβ3 binding inhibitory activity)
Method: Integrin αvβ3 antagonistic activity was measured for the compounds according to the present invention in a vitronectin-vitronectin receptor binding assay system in accordance with the method of Kouns et al. (W. C. Kouns, D. Kirchhofer, P. Hadvary, A. Edenhofer, T. Weller, G. Pfenninger, H. R. Baumgartner, L. K. Jennings and B. Steiner, Blood, 8, 2539-2547 (1992)). […]
Test readout: IC50 (nM)
Numbers only, in nM.

Nc1c(N2CCN(C3=NCCCN3)CC2)ccc(C(=O)NC[C@H](NS(=O)(=O)c2ccccc2)C(=O)O)c1Cl = 6.3
Cc1cc(C)c(S(=O)(=O)N[C@@H](CNC(=O)c2ccc(N3CCN(C4=NCCCN4)CC3)c(F)c2)C(=O)O)c(C)c1 = 5.8
O=C(N[C@@H](CNC(=O)c1ccc(N2CCN(C3=NCCCN3)CC2)cc1)C(=O)O)OCc1ccccc1 = 31

Here is the next item to consider.
Request: Please report the recorded IC50 for `O=C(NC[C@H](NS(=O)(=O)c1ccccc1)C(=O)O)c1ccc(N2CCN(C3=NCCCN3)CC2)c(Cl)c1` .
Result: 3.5
